system: fMLF-activated human neutrophils (neutrophil elastase release); test: Neutrophil elastase release in fMLF-activated human neutrophils; format: cell-based; settings: fMLF-activated human neutrophils
MEASURED QUANTITY: Inhibitory effect on NE release (in words)

MOLECULE	MEASUREMENT
CC1(O)c2ccccc2-c2c(N3CCC(O)CC3)nc3ccccc3c21 (centres unmarked)	inactive
O=C(N/N=C1\c2ccccc2-c2c(N3CCC(O)CC3)nc3ccccc3c21)c1ccccc1	inactive

###

Property: melting point; scope: individual compounds

COMPOUND	MEASURED QUANTITY	MEASUREMENT
O=C1c2ccccc2-c2c(N3CCCCC3)nc3ccccc3c21 [Compound 3b]	melting point	165 to 166 °C
O=C(N/N=C1\c2ccccc2-c2c(N3CCC(O)CC3)nc3ccccc3c21)c1ccncc1 [Compound 12]	melting point	282 to 283 °C
COc1ccc2c(c1)C(=O)c1c-2c(N2CCC(CO)CC2)nc2ccccc12 [Compound 4f]	melting point	218 to 219 °C
CC1(O)c2ccccc2-c2c(N3CCC(O)CC3)nc3ccccc3c21 (centres unmarked) [Compound 6]	melting point	146 to 147 °C
NC(=S)N/N=C1\c2ccccc2-c2c(N3CCC(O)CC3)nc3ccccc3c21 [Compound 10]	melting point	304 to 305 °C
O=C1c2ccccc2-c2c(N3CCCC3)nc3ccccc3c21 [Compound 3a]	melting point	163 to 164 °C
COc1ccc2c(c1)C(=O)c1c-2c(N2CCCC(CO)C2)nc2ccccc12 (centres unmarked) [Compound 4g]	melting point	243 to 244 °C
O=C1c2ccccc2-c2c(N3CCC(CO)CC3)nc3ccccc3c21 [Compound 3f]	melting point	223 to 224 °C
O=C(N/N=C1\c2ccccc2-c2c(N3CCC(O)CC3)nc3ccccc3c21)c1ccccc1 [Compound 11]	melting point	258 to 259 °C
O=C1c2ccccc2-c2c(N3CCOCC3)nc3ccccc3c21 [Compound 3c]	melting point	171 to 173 °C

[in] # melting point lookup, item O=C1c2ccccc2-c2c(N3CCC(O)CC3)nc3ccccc3c21 [Compound 3d]
[out] 208 °C

[in] # melting point lookup, item CO/N=C1\c2ccccc2-c2c(N3CCC(O)CC3)nc3ccccc3c21 [Compound 8]
[out] 183 to 184 °C

[in] # melting point lookup, item O/N=C1\c2ccccc2-c2c(N3CCC(O)CC3)nc3ccccc3c21 [Compound 7]
[out] 155 to 156 °C

[in] # melting point lookup, item O=C1c2ccccc2-c2c(N3CCCC(CO)C3)nc3ccccc3c21 (centres unmarked) [Compound 3g]
[out] 220 to 221 °C

[in] # melting point lookup, item NC(=O)N/N=C1\c2ccccc2-c2c(N3CCC(O)CC3)nc3ccccc3c21 [Compound 9]
[out] 289 to 290 °C

[in] # melting point lookup, item COc1ccc2c(c1)C(=O)c1c-2c(N2CCCC(O)C2)nc2ccccc12 (centres unmarked) [Compound 4e]
[out] 191 to 192 °C

[in] # melting point lookup, item O=C1c2ccccc2-c2c(N3CCCC(O)C3)nc3ccccc3c21 (centres unmarked) [Compound 3e]
[out] 211 to 212 °C

###

test system: Vero cells; experiment: Vero cell viability (MTT, Promega Cell Titer 96)
Property: Survival Rate of Vero Cells @ 20 μg/mL; scope: individual compounds
Give your result in % as a bare value.

COMPOUND	MEASUREMENT
NC(=O)N/N=C1\c2ccccc2-c2c(N3CCC(O)CC3)nc3ccccc3c21 [Compound 9]	81.20

[in] # Survival Rate of Vero Cells @ 20 μg/mL lookup, item NC(=S)N/N=C1\c2ccccc2-c2c(N3CCC(O)CC3)nc3ccccc3c21 [Compound 10]
[out] 80.28

[in] # Survival Rate of Vero Cells @ 20 μg/mL lookup, item O=C1c2ccccc2-c2c(N3CCCC3)nc3ccccc3c21 [Compound 3a]
[out] 88.61

[in] # Survival Rate of Vero Cells @ 20 μg/mL lookup, item O=C(N/N=C1\c2ccccc2-c2c(N3CCC(O)CC3)nc3ccccc3c21)c1ccccc1 [Compound 11]
[out] 89.55

[in] # Survival Rate of Vero Cells @ 20 μg/mL lookup, item O=C1c2ccccc2-c2c(N3CCOCC3)nc3ccccc3c21 [Compound 3c]
[out] 91.19

###

tested on: fMLF-activated human neutrophils (neutrophil elastase release); assay: Neutrophil elastase release in fMLF-activated human neutrophils; assay type: cell-based; conditions: Neutrophil; fMLF/cytochalasin B-activated human neutrophils; mean ± SEM (n = 3)
Property: pIC50; scope: individual compounds
A value of pIC50 is the negative decimal logarithm of a concentration given in moles per litre.

Known pIC50 results, listed for orientation:
COMPOUND	pIC50
COc1ccc2c(c1)C(=O)c1c-2c(N2CCCC(CO)C2)nc2ccccc12 (stereo not shown)	6.34
CO/N=C1\c2ccccc2-c2c(N3CCC(O)CC3)nc3ccccc3c21	5.67
COc1ccc2c(c1)C(=O)c1c-2c(N2CCC(O)CC2)nc2ccccc12	5.69
O/N=C1\c2ccccc2-c2c(N3CCC(O)CC3)nc3ccccc3c21	5.86
O=C1c2ccccc2-c2c(N3CCC(O)CC3)nc3ccccc3c21	5.66
O=C(N/N=C1\c2ccccc2-c2c(N3CCC(O)CC3)nc3ccccc3c21)c1ccncc1	5.75
COc1ccc2c(c1)C(=O)c1c-2c(N2CCCC(O)C2)nc2ccccc12 (stereo not shown)	5.53

// below: pIC50 requested for another compound
[in] # pIC50 lookup, item O=C1c2ccccc2-c2c(N3CCCC(CO)C3)nc3ccccc3c21 (stereo not shown)
[out] 5.67

###

test system: fMLF-activated human neutrophils (neutrophil elastase release); assay: Neutrophil elastase release in fMLF-activated human neutrophils; format: cell-based; settings: Neutrophil; fMLF/cytochalasin B-activated human neutrophils; mean ± SEM (n = 3)
Property: IC50; scope: individual compounds
Give your result in µM as a bare value.

Known IC50 results, listed for orientation:
COMPOUND	IC50 (µM)
O=C1c2ccccc2-c2c(N3CCC(CO)CC3)nc3ccccc3c21	4.5
COc1ccc2c(c1)C(=O)c1c-2c(N2CCC(CO)CC2)nc2ccccc12	0.88

[in] # IC50 lookup, item O=C1c2ccccc2-c2c(N3CCCC(O)C3)nc3ccccc3c21 (stereo not drawn)
[out] 2.8

[in] # IC50 lookup, item `OC1CCN(c2nc3ccccc3c3c2-c2ccccc2C3)CC1`
[out] 5.29

###

test system: Vero cells; test: Vero cell viability (MTT, Promega Cell Titer 96)
With a cut-off of 90%, any Survival Rate of Vero Cells @ 20 μg/mL strictly below it is called criterion met; any Survival Rate of Vero Cells @ 20 μg/mL meeting it or above is called criterion not met.

Solved entries (count: 3):
COMPOUND	CLASS ASSIGNMENT
COc1ccc2c(c1)C(=O)c1c-2c(N2CCCCC2)nc2ccccc12 [Compound 4b]	criterion not met
COc1ccc2c(c1)C(=O)c1c-2c(N2CCC(O)CC2)nc2ccccc12 [Compound 4d]	criterion met
O=C1c2ccccc2-c2c(N3CCCCC3)nc3ccccc3c21 [Compound 3b]	criterion not met

Let us examine a further case.
[in] Determine if O=C(N/N=C1\c2ccccc2-c2c(N3CCC(O)CC3)nc3ccccc3c21)c1ccncc1 [Compound 12] shows Survival Rate of Vero Cells @ 20 μg/mL strictly lower than 90%.
[out] criterion not met

###

Property: Survival Rate of Vero Cells @ 20 μg/mL; scope: individual compounds
system: Vero cells; assay: Vero cell viability (MTT, Promega Cell Titer 96)
Give your result in % as a bare value.

Known Survival Rate of Vero Cells @ 20 μg/mL results, listed for orientation:
COMPOUND	READOUT UNITS	Survival Rate of Vero Cells @ 20 μg/mL
COc1ccc2c(c1)C(=O)c1c-2c(N2CCCC(CO)C2)nc2ccccc12 (centres unmarked)	%	87.60
COc1ccc2c(c1)C(=O)c1c-2c(N2CCC(CO)CC2)nc2ccccc12	%	90.26
O=C1c2ccccc2-c2c(N3CCC(O)CC3)nc3ccccc3c21	%	91.23
COc1ccc2c(c1)C(=O)c1c-2c(N2CCCC(O)C2)nc2ccccc12 (centres unmarked)	%	87.59

[in] # Survival Rate of Vero Cells @ 20 μg/mL lookup, item O=C1c2ccccc2-c2c(N3CCCC(CO)C3)nc3ccccc3c21 (centres unmarked)
[out] 92.25
